Where do the numbers come from? From patent US10597388B2.

Tested on: ragweed (common ragweed, Ambrosia elatior)
Assay: Test A greenhouse herbicide test, pre- and postemergence
Type: in vivo
Details: Postemergence, 125 g ai/ha; 0 to 100 scale, 0 no effect, 100 complete control
quantity-kind: Plant response rating, Ragweed
Field format: numeric only.

Please review the following examples before continuing.
{"compound": "Cc1n[nH]c(=O)c(-c2cccc3ccccc23)c1O", "Plant response rating, Ragweed": 0}
{"compound": "Cc1nn(C)c(=O)c(-c2ccc(Cl)c3ccccc23)c1OS(=O)(=O)N(C)C", "Plant response rating, Ragweed": 10}
{"compound": "Cc1nn(C)c(=O)c(-c2ccc(Cl)c3ccccc23)c1OP(C)(C)=O", "Plant response rating, Ragweed": 100}

Let us move to another entry and its Plant response rating, Ragweed.
Lab book: Plant response rating, Ragweed of CC(=O)Oc1c(C)nn(C)c(=O)c1-c1c(C)cc(C)c2ccccc12 noted as 80

====

Listing: Plant response rating (scale of 0 to 100), Buckwheat, Wild of selected molecules
Tested on: buckwheat, wild (wild buckwheat, Polygonum convolvulus)
Test: Test D controlled growth environment herbicide test, pre- and postemergence
Assay type: in vivo
Details: Preemergence, 31 g ai/ha

# annotated cases, reported Plant response rating (scale of 0 to 100), Buckwheat, Wild shown
{"molecule": "C#CCOC(=O)Oc1c(C)nn(C)c(=O)c1-c1c(C)sc2ccc(C)cc12 [Compound 87]", "target-system": "buckwheat, wild (wild buckwheat, Polygonum convolvulus)", "result": 0}
{"molecule": "Cc1ccc2sc(C)c(-c3c(O)c(C)nn(C)c3=O)c2c1 [Compound 1]", "target-system": "buckwheat, wild (wild buckwheat, Polygonum convolvulus)", "result": 5}
{"molecule": "CCC(=O)Oc1c(C)nn(C)c(=O)c1-c1c(C)sc2c(C)cc(C)cc12 [Compound 28]", "target-system": "buckwheat, wild (wild buckwheat, Polygonum convolvulus)", "result": 0}
{"molecule": "CC(=O)Oc1c(Br)nn(C)c(=O)c1-c1c(C)ccc2ccccc12 [Compound 129]", "target-system": "buckwheat, wild (wild buckwheat, Polygonum convolvulus)", "result": 0}
{"molecule": "Cc1ccc(-c2c(O)c(Br)nn(C)c2=O)c2ccccc12 [Compound 52]", "target-system": "buckwheat, wild (wild buckwheat, Polygonum convolvulus)", "result": 20}

Lab note: measured Plant response rating (scale of 0 to 100), Buckwheat, Wild of CC(=O)Oc1c(C)nn(C)c(=O)c1-c1c(C)sc2ccc(C)cc12 [Compound 25] was 0

Data point: Cc1ccc2ccccc2c1-c1c(O)c(C)nn(C)c1=O [Compound 59] ; Plant response rating (scale of 0 to 100), Buckwheat, Wild = 20

Input COC(=O)Oc1c(C)nn(C)c(=O)c1-c1c(C)sc2c(C)cc(C)cc12 [Compound 81] . Output Plant response rating (scale of 0 to 100), Buckwheat, Wild: 15

====

System: mustard, wild (wild mustard, Sinapis arvensis)
Assay: Test D controlled growth environment herbicide test, pre- and postemergence
Format: in vivo
Details: Preemergence, 62 g ai/ha; scale 0 to 100 (0 no effect, 100 complete control)
Use 80 as the dividing line for Plant response rating, Mustard, Wild, with the line itself on the rule met side and lower values as rule not met.

Use these answered entries as a reference point.
{"compound": "Cc1ccc2ccc(C)c(-c3c(O)c(C)nn(C)c3=O)c2c1", "group": "rule not met"}
{"compound": "Cc1ccc2ccccc2c1-c1c(O)c(C)nn(C)c1=O", "group": "rule met"}
{"compound": "Cc1ccc2sc(C)c(-c3c(O)c(C)nn(C)c3=O)c2c1", "group": "rule not met"}
{"compound": "CC(=O)Oc1c(C)nn(C)c(=O)c1-c1c(C)sc2ccc(C)cc12", "group": "rule not met"}
{"compound": "COc1nn(C)c(=O)c(-c2c(C)ccc3ccccc23)c1O", "group": "rule met"}

Problem: Is reported Plant response rating, Mustard, Wild greater than or equal to 80 here: COc1nn(C)c(=O)c(-c2c(C)ccc3ccccc23)c1OC(=O)OC(C)C
Result: rule met
